Reference source: PubChem BioAssay AID2060884

- System: NCI-H929 complex spheroids, viability % test/control
- experimental details: Anticancer human tumor NCI-H929 cell line growth inhibition [RAS]; active = viability on the fitted dose curve at most 10% of control; inactive = the rest;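 also: compound exposure lasted seven days before viability was read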
- experimental context: second compound 10 µM; first compound 0.0316 µM
- From the text: RAS pathway inhibitors in Combinations in Complex Spheroids A high-throughput screen of multi-cell type tumor spheroids was designed to identify active combinations of RAS pathway inhibitors and targeted small molecules. Complex spheroids include a stromal component modeled by human endothelial cells (HUVEC) and fibroblasts modeled by human mesenchymal stem cells (MSCs). […] Compounds. […] If the clinical Cmax for an agent had not been determined, the highest concentration tested was 10 microM. […]
The reply should be one of these categories: active, inactive

1) CCN1CCN(Cc2ccc(Nc3ncc(F)c(-c4cc(F)c5nc(C)n(C(C)C)c5c4)n3)nc2)CC1 + C#Cc1c(F)ccc2cc(O)cc(-c3ncc4c(N5CC6CCC(C5)N6)nc(OCC56CCCN5CC(F)C6)nc4c3F)c12; inactive
2) CC1(O)CCCC1n1c(=O)c(C(F)F)cc2cnc(NC3CCN(S(C)(=O)=O)CC3)nc21 (centres undefined) + C#Cc1c(F)ccc2cc(O)cc(-c3ncc4c(N5CC6CCC(C5)N6)nc(OCC56CCCN5CC(F)C6)nc4c3F)c12; inactive
3) C=CC(=O)N1CCN(c2nc(OCC3CCCN3C)nc3c(F)c(-c4nc(N)cc(C)c4C(F)(F)F)c(Cl)cc23)C(C)C1 (centres undefined) + C#Cc1c(F)ccc2cc(O)cc(-c3ncc4c(N5CC6CCC(C5)N6)nc(OCC56CCCN5CC(F)C6)nc4c3F)c12; inactive
4) CC(C)NCC(C(=O)N1CCN(c2ncnc3c2C(C)CC3O)CC1)c1ccc(Cl)cc1 (centres undefined) + C#Cc1c(F)ccc2cc(O)cc(-c3ncc4c(N5CC6CCC(C5)N6)nc(OCC56CCCN5CC(F)C6)nc4c3F)c12; inactive
5) CC(Nc1ccc2c(c1)OCCn1cc(N3C(=O)OCC3C(F)F)nc1-2)C(N)=O (centres undefined) + C#Cc1c(F)ccc2cc(O)cc(-c3ncc4c(N5CC6CCC(C5)N6)nc(OCC56CCCN5CC(F)C6)nc4c3F)c12; inactive
6) NC1c2ccccc2OC12CCN(c1cnc3c(N4CCCc5ncccc54)n[nH]c3n1)CC2 (centres undefined) + C#Cc1c(F)ccc2cc(O)cc(-c3ncc4c(N5CC6CCC(C5)N6)nc(OCC56CCCN5CC(F)C6)nc4c3F)c12; inactive
7) CC(C)n1nc(-c2ccc3oc(N)nc3c2)c2c(N)ncnc21 + C#Cc1c(F)ccc2cc(O)cc(-c3ncc4c(N5CC6CCC(C5)N6)nc(OCC56CCCN5CC(F)C6)nc4c3F)c12; inactive
8) CCC(CC)c1cc(NC2CCC(N)C2)n2nccc2n1 (centres undefined) + C#Cc1c(F)ccc2cc(O)cc(-c3ncc4c(N5CC6CCC(C5)N6)nc(OCC56CCCN5CC(F)C6)nc4c3F)c12; inactive
9) CC(=O)OC12COC1CC(O)C1(C)C(=O)C(O)C3=C(C)C(OC(=O)C(O)C(NC(=O)OC(C)(C)C)c4ccccc4)CC(O)(C(OC(=O)c4ccccc4)C21)C3(C)C (centres undefined) + C#Cc1c(F)ccc2cc(O)cc(-c3ncc4c(N5CC6CCC(C5)N6)nc(OCC56CCCN5CC(F)C6)nc4c3F)c12; active
10) C=CC(=O)Nc1cc(Nc2nccc(-c3cn(C)c4ccccc34)n2)c(OC)cc1N(C)CCN(C)C + C#Cc1c(F)ccc2cc(O)cc(-c3ncc4c(N5CC6CCC(C5)N6)nc(OCC56CCCN5CC(F)C6)nc4c3F)c12; inactive

## Input Given O=C(c1ccc(F)c(F)c1Nc1ccc(I)cc1F)N1CC(O)([C@@H]2CCCCN2)C1 + C#Cc1c(F)ccc2cc(O)cc(-c3ncc4c(N5CC6CCC(C5)N6)nc(OCC56CCCN5CC(F)C6)nc4c3F)c12 , state the outcome it received in this test.
## Output inactive

## Input Given C[C@@H](NC(=O)c1ncnc(N)c1Cl)c1ncc(C(=O)Nc2cc(C(F)(F)F)c(Cl)cn2)s1 + C#Cc1c(F)ccc2cc(O)cc(-c3ncc4c(N5CC6CCC(C5)N6)nc(OCC56CCCN5CC(F)C6)nc4c3F)c12 , state the outcome it received in this test.
## Output inactive

## Input Given Cc1nc(N2CCC3(CC2)COC(C)C3N)c(CO)nc1Sc1ccnc(N)c1Cl (centres undefined) + C#Cc1c(F)ccc2cc(O)cc(-c3ncc4c(N5CC6CCC(C5)N6)nc(OCC56CCCN5CC(F)C6)nc4c3F)c12 , state the outcome it received in this test.
## Output inactive

## Input Given Nc1ccn(C2OC(CO)C(O)C2(F)F)c(=O)n1 (centres undefined) + C#Cc1c(F)ccc2cc(O)cc(-c3ncc4c(N5CC6CCC(C5)N6)nc(OCC56CCCN5CC(F)C6)nc4c3F)c12 , state the outcome it received in this test.
## Output active

* * *

Consider the following molecules; for each one, report its viability, T/C.
- System: NCI-H929 complex spheroids, viability % test/control
- experimental details: Anticancer human tumor NCI-H929 cell line growth inhibition [RAS];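 also: compound exposure lasted seven days before viability was read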;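 as to viability, T/C: 100% = DMSO vehicle control viability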
- experimental context: compound 0.3 µM; stronger effect = lower value

For orientation, consider the following solved cases.
1) CC1(C)CCC(Nc2ncc(C(F)(F)F)c(-c3c[nH]c4c(P(C)(C)=O)c(C#N)ccc34)n2)CN1 (centres undefined); 5.41% [middle of 4 runs]
2) CCn1c(-c2cc(N3CCN(C)CC3)cnc2C(C)OC)c2c3cc(ccc31)-c1csc(n1)CC(NC(=O)C1CC1C)C(=O)N1CCCC(N1)C(=O)OCC(C)(C)C2 (centres undefined); 3.64% [middle of 8 runs]
3) CCc1c2c(nc3ccc(O)cc13)-c1cc3c(c(=O)n1C2)COC(=O)[C@]3(O)CC; 1.15% [middle of 4 runs]

Let us examine a further case.
## Input Tell me reported viability, T/C for CCn1c(-c2cccnc2C(C)OC)c2c3cc(ccc31)N1CCOC(CC(NC(=O)C(C(C)C)N(C)C(=O)C3(F)CCN(C(=O)C#CC(C)(C)N(C)C)CC3)C(=O)N3CCCC(N3)C(=O)OCC(C)(C)C2)C1 (centres undefined) , tested with NCI-H929 complex spheroids, viability % test/control.
## Output 98.9% [middle of 8 runs]

* * *

- System: NCI-H929 complex spheroids, viability % test/control
- experimental details: Anticancer human tumor NCI-H929 cell line growth inhibition [RAS];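 also: compound exposure lasted seven days before viability was read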
- experimental context: curve of first compound; second compound 0.03 µM
pIC50: −log10 of the molar value.
experimental endpoint: pIC50

Okay, here is my list. What is pIC50 for each of these?
1. CC(C)NCC(C(=O)N1CCN(c2ncnc3c2C(C)CC3O)CC1)c1ccc(Cl)cc1 (stereo not given) + CCn1c(-c2cccnc2C(C)OC)c2c3cc(ccc31)N1CCOC(CC(NC(=O)C(C(C)C)N(C)C(=O)C3(F)CCN(C(=O)C#CC(C)(C)N(C)C)CC3)C(=O)N3CCCC(N3)C(=O)OCC(C)(C)C2)C1
2. NC1c2ccccc2OC12CCN(c1cnc3c(N4CCCc5ncccc54)n[nH]c3n1)CC2 (stereo not given) + CCn1c(-c2cc(N3CCN(C)CC3)cnc2C(C)OC)c2c3cc(ccc31)-c1csc(n1)CC(NC(=O)C1CC1C)C(=O)N1CCCC(N1)C(=O)OCC(C)(C)C2
3. O=C(c1ccc(F)c(F)c1Nc1ccc(I)cc1F)N1CC(O)([C@@H]2CCCCN2)C1 + CCn1c(-c2cc(N3CCN(C)CC3)cnc2C(C)OC)c2c3cc(ccc31)-c1csc(n1)CC(NC(=O)C1CC1C)C(=O)N1CCCC(N1)C(=O)OCC(C)(C)C2

## Output
1: 5.84; 2: > 7.50; 3: > 8.50

Okay, here is my list. What is pIC50 for each of these?
1. CCC(CC)c1cc(NC2CCC(N)C2)n2nccc2n1 (stereo not given) + CCn1c(-c2cccnc2C(C)OC)c2c3cc(ccc31)N1CCOC(CC(NC(=O)C(C(C)C)N(C)C(=O)C3(F)CCN(C(=O)C#CC(C)(C)N(C)C)CC3)C(=O)N3CCCC(N3)C(=O)OCC(C)(C)C2)C1
2. CCN1CCN(Cc2ccc(Nc3ncc(F)c(-c4cc(F)c5nc(C)n(C(C)C)c5c4)n3)nc2)CC1 + CCn1c(-c2cc(N3CCN(C)CC3)cnc2C(C)OC)c2c3cc(ccc31)-c1csc(n1)CC(NC(=O)C1CC1C)C(=O)N1CCCC(N1)C(=O)OCC(C)(C)C2
3. C=CC(=O)N1CCN(c2nc(OCC3CCCN3C)nc3c(F)c(-c4nc(N)cc(C)c4C(F)(F)F)c(Cl)cc23)C(C)C1 (stereo not given) + CCn1c(-c2cc(N3CCN(C)CC3)cnc2C(C)OC)c2c3cc(ccc31)-c1csc(n1)CC(NC(=O)C1CC1C)C(=O)N1CCCC(N1)C(=O)OCC(C)(C)C2
4. Cc1nc(N2CCC3(CC2)COC(C)C3N)c(CO)nc1Sc1ccnc(N)c1Cl (stereo not given) + CCn1c(-c2cc(N3CCN(C)CC3)cnc2C(C)OC)c2c3cc(ccc31)-c1csc(n1)CC(NC(=O)C1CC1C)C(=O)N1CCCC(N1)C(=O)OCC(C)(C)C2
5. NC1c2ccccc2OC12CCN(c1cnc3c(N4CCCc5ncccc54)n[nH]c3n1)CC2 (stereo not given) + CCn1c(-c2cccnc2C(C)OC)c2c3cc(ccc31)N1CCOC(CC(NC(=O)C(C(C)C)N(C)C(=O)C3(F)CCN(C(=O)C#CC(C)(C)N(C)C)CC3)C(=O)N3CCCC(N3)C(=O)OCC(C)(C)C2)C1
6. C[C@@H](NC(=O)c1ncnc(N)c1Cl)c1ncc(C(=O)Nc2cc(C(F)(F)F)c(Cl)cn2)s1 + CCn1c(-c2cc(N3CCN(C)CC3)cnc2C(C)OC)c2c3cc(ccc31)-c1csc(n1)CC(NC(=O)C1CC1C)C(=O)N1CCCC(N1)C(=O)OCC(C)(C)C2
7. CC(Nc1ccc2c(c1)OCCn1cc(N3C(=O)OCC3C(F)F)nc1-2)C(N)=O (stereo not given) + CCn1c(-c2cc(N3CCN(C)CC3)cnc2C(C)OC)c2c3cc(ccc31)-c1csc(n1)CC(NC(=O)C1CC1C)C(=O)N1CCCC(N1)C(=O)OCC(C)(C)C2

## Output
[5.87, 6.87, "< 6.00", "> 7.50", "< 5.00", "< 5.00", "> 7.50"]

Okay, here is my list. What is pIC50 for each of these?
1. CC1(O)CCCC1n1c(=O)c(C(F)F)cc2cnc(NC3CCN(S(C)(=O)=O)CC3)nc21 (stereo not given) + CCn1c(-c2cc(N3CCN(C)CC3)cnc2C(C)OC)c2c3cc(ccc31)-c1csc(n1)CC(NC(=O)C1CC1C)C(=O)N1CCCC(N1)C(=O)OCC(C)(C)C2
2. CCC(CC)c1cc(NC2CCC(N)C2)n2nccc2n1 (stereo not given) + CCn1c(-c2cc(N3CCN(C)CC3)cnc2C(C)OC)c2c3cc(ccc31)-c1csc(n1)CC(NC(=O)C1CC1C)C(=O)N1CCCC(N1)C(=O)OCC(C)(C)C2
3. CC(=O)OC12COC1CC(O)C1(C)C(=O)C(O)C3=C(C)C(OC(=O)C(O)C(NC(=O)OC(C)(C)C)c4ccccc4)CC(O)(C(OC(=O)c4ccccc4)C21)C3(C)C (stereo not given) + CCn1c(-c2cccnc2C(C)OC)c2c3cc(ccc31)N1CCOC(CC(NC(=O)C(C(C)C)N(C)C(=O)C3(F)CCN(C(=O)C#CC(C)(C)N(C)C)CC3)C(=O)N3CCCC(N3)C(=O)OCC(C)(C)C2)C1

## Output
1: 7.24; 2: > 7.50; 3: > 7.50

Okay, here is my list. What is pIC50 for each of these?
1. C=CC(=O)N1CCN(c2nc(OCC3CCCN3C)nc3c(F)c(-c4nc(N)cc(C)c4C(F)(F)F)c(Cl)cc23)C(C)C1 (stereo not given) + CCn1c(-c2cccnc2C(C)OC)c2c3cc(ccc31)N1CCOC(CC(NC(=O)C(C(C)C)N(C)C(=O)C3(F)CCN(C(=O)C#CC(C)(C)N(C)C)CC3)C(=O)N3CCCC(N3)C(=O)OCC(C)(C)C2)C1
2. CCc1c2c(nc3ccc(O)cc13)-c1cc3c(c(=O)n1C2)COC(=O)[C@]3(O)CC + CCn1c(-c2cccnc2C(C)OC)c2c3cc(ccc31)N1CCOC(CC(NC(=O)C(C(C)C)N(C)C(=O)C3(F)CCN(C(=O)C#CC(C)(C)N(C)C)CC3)C(=O)N3CCCC(N3)C(=O)OCC(C)(C)C2)C1

## Output
1. < 6.00
2. 8.85
